The entries below are paired with their reported EC90.
- system: Nonstructural protein 5A (Hepatitis C virus) (UniProt Q5L478)
- Sequence (whole entry): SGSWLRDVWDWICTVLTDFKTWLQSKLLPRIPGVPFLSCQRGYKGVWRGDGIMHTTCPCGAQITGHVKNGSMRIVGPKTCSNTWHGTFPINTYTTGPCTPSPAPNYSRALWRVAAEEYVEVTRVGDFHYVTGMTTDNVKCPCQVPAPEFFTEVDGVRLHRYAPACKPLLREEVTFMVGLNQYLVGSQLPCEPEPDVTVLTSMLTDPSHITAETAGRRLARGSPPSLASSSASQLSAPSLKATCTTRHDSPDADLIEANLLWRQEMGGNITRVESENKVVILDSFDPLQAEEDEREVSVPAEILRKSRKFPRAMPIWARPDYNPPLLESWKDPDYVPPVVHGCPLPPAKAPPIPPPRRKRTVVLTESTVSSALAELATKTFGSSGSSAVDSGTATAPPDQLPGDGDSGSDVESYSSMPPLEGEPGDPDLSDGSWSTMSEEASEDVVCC
- measurement_description: Inhibition of NS5A L31V mutant in HCV genotype 1a infected in HuH7 replicon cells assessed as decrease in viral replication after 3 days by RT-PCR method
- Format: cell-based
- setup_conditions: Hepatitis C virus subtype 1a

Reference set, count: 2
>>> data_value("COC(=O)N[C@H](C(=O)N1CCC[C@H]1c1ncc(-c2cc(F)c3c(c2)O[C@@H](c2ccc(C4CC4)s2)n2c-3cc3cc(-c4cnc([C@@H]5CCCN5C(=O)[C@@H](NC(=O)OC)C5C[C@@H](C)O[C@@H](C)C5)[nH]4)ccc32)[nH]1)C(C)C (stereo partly drawn)")
"5 pM"
>>> data_value("CCc1ncc([C@@H]2Oc3cc(-c4cnc([C@@H]5CCCN5C(=O)[C@@H](NC(=O)OC)C(C)C)[nH]4)cc(F)c3-c3cc4cc(-c5cnc([C@@H]6CCCN6C(=O)[C@@H](NC(=O)OC)[C@@H]6CCOC(C)(C)C6)[nH]5)ccc4n32)s1")
"5 pM"

Consider now this further compound.
Find the recorded EC90 belonging to "COC(=O)N[C@H](C(=O)N1CCC[C@H]1c1ncc(-c2cc(F)c3c(c2)O[C@@H](c2ccc(C(F)F)s2)n2c-3cc3cc(-c4cnc([C@@H]5CCCN5C(=O)[C@@H](NC(=O)OC)C5CCOCC5)[nH]4)ccc32)[nH]1)C(C)C" and report it.
5 pM
